This collection of values is drawn from PubChem BioAssay (NCI).

# System: ACHN renal
# experimental.details: NCI-60 one-dose screen, 48 h (100 = growth as untreated, 0 = no growth, -100 = all killed)
# assay.conditions: 10 µM unless noted
This is part of a sample that, as a whole, favours compounds with a hit. Of some 83,000 tested, about 20% had one in any assay.

compound | growth [%]
O=C1Nc2ccccc2SC1c1ccccc1Cl (stereo not drawn) | 115
CCCCNC(=O)NS(=O)(=O)c1ccc(N2N=C(c3ccc(C)cc3C)CC2c2ccc(N(C)C)cc2)cc1 (stereo not drawn) | 48.6
Cc1[nH]c(-c2nc3ccccc3[nH]2)c(C)c1C(=O)N1CCc2sccc2C1 | 99.5
CN(C)S(=O)(=O)n1cnc([C@@H]2[C@@H]3C(=O)OC[C@@H]3C[C@]23N=CN(Cc2ccccc2)C3=O)c1 | 102
Cc1nc2ccccc2c(/C=C/c2ccc(Cl)cc2)c1C(=O)/C=C/c1ccc(Cl)cc1 | -90.3
C[C@@H]1CC[C@@H]2[C@@H]1[C@H](OC(=O)/C=C/c1ccccc1)[C@]1(CCCOCCOCCOCCOC(=O)CCCC[C@@H]3SC[C@@H]4NC(=O)N[C@@H]43)C[C@@H](OC(=O)CO)[C@@]2(C)O1 | 102
Cc1cc(N(CCCNc2ccnc3cc(Cl)ccc23)Cc2ccccn2)nc(N2CCOCC2)n1 | 101
C=C(C)[C@@H]1CC[C@]2(CO)CC[C@]3(C)[C@H](CC[C@@H]4[C@@]5(C)C=C(C#N)C(=O)C(C)(C)[C@@H]5CC[C@]43C)[C@@H]12 | 12
